Test system: RXF 393
Assay: NCI tumour cell line growth inhibition, 48 h
The source made the active and inactive calls. No stated cut-off is given here; in the data, active = GI50 up to about 1.1 µM and inactive = higher.
Please respond with reported GI50 for every item in the list.

Record GI50 for all entries; do not skip any.
1. CCOC(=O)CCC1(C(=O)OCC)CCCC1=O (configuration not stated)
2. COc1ccc(-c2cc(=O)c3c(O)c(OC)c(O)c(OC)c3o2)cc1OC
3. COc1ccc2nc3ccccc3c(NCCN(CCCl)CCCl)c2c1

-- reply
1: > 100 µM (inactive); 2: 14.1 µM (inactive); 3: 1.66 µM (inactive)

Record GI50 for all entries; do not skip any.
1. O=C(O)C1C2C=CC(O2)C1C(=O)Nc1ccccc1 (configuration not stated)
2. CN1CCc2cc(N)cc3c2C1Cc1ccc2c(c1-3)OCO2 (configuration not stated)
3. NN=C1/C(=C\c2ccccc2)CCC/C1=C/c1ccccc1
4. COc1cc(/C=C2\N=C(c3ccccc3)N(c3nc4ccccc4s3)C2=O)cc(OC)c1OC
5. CC(C(=O)O)C1Nc2ccccc2NC1=O (configuration not stated)
6. COc1ccnc2c1C(=O)c1nc3ccccc3c3ccnc-2c13

-- reply
1: > 100 µM (inactive); 2: 27.4 µM (inactive); 3: 31 µM (inactive); 4: 18.8 µM (inactive); 5: > 100 µM (inactive); 6: 0.231 µM (active)

Record GI50 for all entries; do not skip any.
1. CCOP(=O)(OCC)C(Cc1ccc(OC)c(OC)c1)N=C(c1ccccc1)c1ccccc1 (configuration not stated)
2. CN(C)CCSCCO
3. CC1=NN(c2cccc(Cl)c2)C(=N/c2nc3ccccc3s2)/C1=C\c1ccccc1O
4. C=C(CC)C(=O)c1ccc(OCC(=O)O)c(Cl)c1Cl [ETHACRYNIC ACID]
5. COc1ccc(C[C@H]2COC(=O)[C@@H]2Cc2ccc(Br)cc2)cc1OC
6. CC(=O)Oc1cc(C(F)(F)F)ccc1C(=O)OC1(C)OC(=O)c2ccc(C(F)(F)F)cc2O1 (configuration not stated)
7. O=S(=O)(/N=S(/Nc1ccccc1)C(F)(F)Cl)c1ccccc1 (configuration not stated)

-- reply
1: 61.4 µM (inactive); 2: > 100 µM (inactive); 3: 38.1 µM (inactive); 4: 18.2 µM (inactive); 5: 20 µM (inactive); 6: > 100 µM (inactive); 7: > 100 µM (inactive)

Record GI50 for all entries; do not skip any.
1. CC1(C)N=C(N)N=C(N)N1CCCCc1ccccc1
2. O=C(N/N=C/c1ccccc1O)c1cccc([N+](=O)[O-])c1
3. CC1(O)CCn2c(=O)c3cc4ccccc4cc3c(=O)n2C1O (configuration not stated)
4. COC(=O)C(=O)C(C(=O)C(=O)Nc1ccccc1C(N)=O)c1nc2ccc([N+](=O)[O-])cc2nc1O (configuration not stated)
5. Cc1nn2c(=O)c([N+](=O)[O-])c(/C=C/c3ccco3)nc2s1
6. N#Cc1ccc(/C=C2\Cc3ccccc3C2=O)cc1
7. Cc1cc(N(CCC#N)CCC#N)ccc1C(=N/NC(=O)c1cc(Cl)ccc1O)/N=N/c1cccc(Cl)c1
8. CS(=O)(=O)c1ccc(COP(N)(=O)N(CCCl)CCCl)cc1 (configuration not stated)

-- reply
1. 0.422 µM (active)
2. 8.95 µM (inactive)
3. > 100 µM (inactive)
4. > 100 µM (inactive)
5. 28.7 µM (inactive)
6. > 100 µM (inactive)
7. 10.7 µM (inactive)
8. > 100 µM (inactive)

Record GI50 for all entries; do not skip any.
1. CCC[S+]([O-])c1nc(COC(=O)NC)c(COC(=O)NC)n1C (configuration not stated)
2. CC(=O)/C=C\C1CC2C=CC1C2 (configuration not stated)
3. c1ccc(-c2nnc3nn4c(-c5ccccc5)cnnc4c3c2-c2ccccc2)cc1

-- reply
> 100 µM (inactive)
63 µM (inactive)
14.7 µM (inactive)
